# growth listing for each entry below
Tested on: SF-268 CNS
Experiment: NCI-60 one-dose screen, 48 h (100 = growth as untreated, 0 = no growth, -100 = all killed)
Conditions: 10 µM unless noted
This is part of a sample that, as a whole, favours compounds with a hit. Of some 83,000 tested, about 20% had one in any assay.
Express your answer in %, writing the number without its unit.

CC(=O)O[C@H]1C(=O)[C@@]2(C)[C@H]([C@H](OC(=O)c3ccccc3)[C@]3(O)C[C@H](OC(=O)[C@H](OC(=O)OCC4COC(C)(C)O4)[C@@H](NC(=O)c4ccccc4)c4ccccc4)C(C)=C1C3(C)C)[C@]1(OC(C)=O)CO[C@@H]1C[C@@H]2O (stereo partly drawn): 61.1
CN1CCC(O)(c2ccc(F)cc2)C(C(=O)c2ccc(F)cc2)C1 (stereo not drawn): 106
Cc1ccc(C(Cc2ccccc2)NCCO)cc1 (stereo not drawn): 98
CC(=O)OC[C@]1(C)C=C2C(=O)[C@](C)(O)C3(CC3)C(C)=C2[C@H]1OC(=O)N(C)CCN(C)C(=O)OC(C)(C)C: 7.08
C[C@]12CC[C@@H]3c4ccc(Oc5nc(N6CC6)nc(N6CC6)n5)cc4CC[C@H]3[C@@H]1CCC2=O: 29.9
COc1cccc(C=NC(Cc2cnc[nH]2)C(=O)O)c1O (stereo not drawn): 112
CCOC(=S)S[C@H]1C[C@@H]2[C@H](CC[C@]3(C)C(=O)CC[C@@H]23)[C@@]2(C)CCC(=O)C=C12: 95.5

Now for the compound whose growth we want.
Exam item: Param item = O=P1(NCCCl)OCCCN1CCCl (stereo not drawn) ; retrieve measured growth.
Marked response: 109

----------
Tested on: PC-3 prostate
Assay: NCI-60 one-dose screen, 48 h
Settings: 10 µM unless noted
Compounds without any hit were thinned out: in the full panel of roughly 83,000, 20% have a hit. Calls of active or inactive are those of the source. Rule for the calls: active = growth percent below 10; inactive = the rest.
Reply using exactly one outcome from 1 = active, -1 = inactive

These solved cases illustrate the format of a correct answer.
COP(=O)(OC)C(O)c1ccc(Cl)cc1 (stereo not given): -1
Cc1ccc(S(=O)(=O)F)cc1C(=O)O: -1
COc1cc([C@@H]2c3cc4c(cc3[C@H](OC(C)=O)[C@H]3COC(=O)[C@@H]23)OCO4)cc(OC)c1OC: -1
CCOP(=O)(Cc1ccc(C#N)cc1)OCC: -1
N#CCCNc1ccccc1: -1

Exam item: Please let me know the test result on file for CC(=O)OCC1O[C@@H]([S-])C(OC(C)=O)[C@H](OC(C)=O)[C@@H]1OC(C)=O.[Au+].c1ccc(CN2[CH-]N(Cc3ccccc3)C(c3ccccc3)=C2c2ccccc2)cc1 .
Marked response: -1

Exam item: Then this compound: ClCCN(CCCl)c1ccc(-n2cnc3c(Cl)ncnc32)cc1
Marked response: -1

Exam item: Then this compound: CC12CC=CCC1CCC1C2CCC2(C)C(c3ccc(=O)oc3)CCC12O (stereo not given)
Marked response: 1

Exam item: Then this compound: CSc1nc(Cl)cc(N2CC2)n1
Marked response: -1

Exam item: Then this compound: CC(=O)OC[C@]1(C)C=C2C(=O)[C@](C)(O)C3(CC3)C(C)=C2[C@H]1OC(=O)N(C)CCN(C)C(=O)OC(C)(C)C
Marked response: 1

Exam item: Then this compound: C=CCCCN=C=S
Marked response: -1

Exam item: Then this compound: C=C(C)[C@@]12OC3(/C=C/C=C/CCCCC)O[C@@H]1[C@@H]1[C@@H]4O[C@]4(CO)[C@@H](O)[C@]4(O)C(=O)C(C)=C[C@H]4[C@@]1(O3)[C@H](C)[C@H]2OC(=O)c1ccccc1
Marked response: -1

Exam item: Then this compound: O=C1N[C@@H]2[C@@H](O)[C@@H](O)[C@H](O)C[C@H]2c2cc3c(c(O)c21)OCO3
Marked response: 1

Exam item: Then this compound: CCOC(=O)[C@@H](C)C[C@H](Cc1ccccc1)NC(=O)c1csc([C@@H](C[C@H](C(C)C)N(C)C(=O)[C@H](CC)NC(=O)[C@H]2CCCCN2C)OC(C)=O)n1
Marked response: -1

Exam item: Then this compound: C=CC[Se]C(=O)c1ccccc1OC(C)=O
Marked response: 1

Exam item: Then this compound: O=C(NCCN1CC1)C(=O)NCCN1CC1
Marked response: -1

Exam item: Then this compound: CC[C@H](C)[C@@H]([C@@H](CC(=O)N1CCC[C@H]1[C@H](OC)[C@@H](C)C(=O)N[C@H](C)[C@@H](O)c1ccccc1)OC)N(C)C(=O)[C@@H](NC(=O)[C@@H](NC)C(C)C)C(C)C
Marked response: -1

Exam item: Then this compound: c1ccc(CSC(c2ccccc2)c2ccccc2)cc1
Marked response: -1

Exam item: Then this compound: CC1=C2[C@@H](CC1)[C@]1(C)O[C@@](C(C)C)(C[C@H]1O)[C@H]2OC(=O)C1CC1c1ccccc1 (stereo not given in full)
Marked response: -1

----------
Tested on: SK-MEL-28 melanoma
Test: NCI-60 one-dose screen, 48 h (100 = growth as untreated, 0 = no growth, -100 = all killed)
Settings: 10 µM unless noted
The panel holds about 83,000 compounds, 20% with a hit somewhere; the sample as a whole holds those more often. Activity calls are given as the source filed them. How the source made its calls: active means growth percent below 10; inactive means the rest.
endpoint name: growth

A selection of reference data follows.
CCn1cnc2c(Nc3cccc(Cl)c3)nc(N[C@@H]3CCCC[C@@H]3N)nc21: 22.8% (inactive)
COc1cc(/C=C\c2cc(OC)c(OC)c(OC)c2)cc(NS(=O)(=O)c2cccc(Cl)c2)c1OC: 64% (inactive)
O=C(O)c1ccc([S-])cc1.[Au+].c1ccc(CN2[CH-]N(Cc3ccccc3)C(c3ccccc3)=C2c2ccccc2)cc1: -20.2% (active)
CC1(C)N=C(N)N=C(N)N1c1ccc(CCC(=O)Nc2ccc(S(=O)(=O)F)cc2)c(Cl)c1: 50.4% (inactive)
Oc1c(CCl)cc(Cl)cc1CCl: 126% (inactive)

Exam item: Param item = O=C1C2CCC1C(N1CCCC1)CC2 (centres undefined) ; retrieve measured growth.
Marked response: 102% (inactive)

Exam item: Then this compound: C[C@@]12CC[C@@H](O)C[C@@H]1CC[C@H]1[C@H]2CC[C@@]2(C)[C@H](c3ccc(=O)oc3)CC[C@@]12O
Marked response: -43% (active)

Exam item: Then this compound: CC(=O)OC[C@]1(C)C=C2C(=O)[C@](C)(O)C3(CC3)C(C)=C2[C@H]1OC(=O)N(C)CCN(C)C(=O)OC(C)(C)C
Marked response: -4.04% (active)

Exam item: Then this compound: O=C(NCCN1CC1)C(=O)NCCN1CC1
Marked response: 102% (inactive)

----------
Test system: RPMI-8226 leukemia
Test: NCI-60 one-dose screen, 48 h (100 = growth as untreated, 0 = no growth, -100 = all killed)
Settings: 10 µM unless noted
The panel holds about 83,000 compounds, 20% with a hit somewhere; the sample as a whole holds those more often.
The following ranges of growth define the classes used here: low bin (below 20%), mid bin (20% to below 60%), high bin (60% or more)

These solved cases illustrate the format of a correct answer.
Clc1ccc(N2COOC3(OOC2)C2CC4CC(C2)CC3C4)cc1: mid bin
O=C(CCCCCNC1=CC(=O)c2ccccc2C1=O)NCCC[Te]c1ccccc1: low bin
C#Cc1ccc2c(c1)C(c1ccccc1)=NCC(=O)N2C: high bin
COc1ccc(/C=C\c2cc(OC)c(OC)c(OC)c2)c(NS(=O)(=O)c2ccc(F)cc2)c1O: mid bin
Cc1ccc(Nc2nc3c(s2)C2=CC[C@@H]4[C@H](CC[C@]5(C)C(=O)CC[C@@H]45)[C@@]2(C)CC3)cc1: low bin

Exam item: Bin this entry: O=NN1CCCc2cccc(O)c21
Marked response: mid bin

----------
Tested on: KM12 colon
Assay: NCI-60 one-dose screen, 48 h
Details: 10 µM unless noted
This is part of a sample that, as a whole, favours compounds with a hit. Of some 83,000 tested, about 20% had one in any assay. The source made the active and inactive calls. How the source made its calls: active means growth percent below 10; inactive means the rest.
Reply using exactly one outcome from active, inactive

These solved cases illustrate the format of a correct answer.
COc1ccc(C/C(C)=C(\c2ccc(OCCN3CCOCC3)cc2)c2ccc(OC(=O)Cc3ccccc3)cc2)cc1: active
CCC(O)(CN)c1ccccc1 (stereo not given): inactive

Exam item: Please let me know the test result on file for Cc1ccc(C(Cc2ccccc2)NCCO)cc1 (stereo not given) .
Marked response: inactive

Exam item: Then this compound: CC(=O)ONc1ccc([N+](=O)[O-])c(C(F)(F)F)c1
Marked response: inactive

----------
Test system: OVCAR-8 ovarian
Experiment: NCI-60 one-dose screen, 48 h
Conditions: 10 µM unless noted
The panel holds about 83,000 compounds, 20% with a hit somewhere; the sample as a whole holds those more often. Calls of active or inactive are those of the source. The calls were made as follows: active = growth percent below 10; inactive = the rest.
Reply using exactly one outcome from 1.0 (active), 0.0 (inactive)

CC(C)(NC(=O)O[C@@H]1CN2CCC1CC2)c1csc(-c2ccc(F)cc2)n1: 0.0
COc1cc2c(cc1OCc1ccccc1)C(CC(C)C)=[N+](C)CC2: 0.0
CNC12C3C4C1C1C2C3C41C(=O)N[C@H](C(=O)N(C)[C@H](C[C@@H](OC(C)=O)c1nc(C(=O)N[C@@H](Cc2ccccc2)C[C@H](C)C(=O)OC)cs1)C(C)C)C1CC1 (some centres not stated): 0.0
CC[C@H](C)[C@H](NC(=O)C12C3C4C1C1C2C3C41NC)C(=O)N(C)[C@H](C[C@@H](OC(C)=O)c1nc(C(=O)N[C@@H](Cc2ccccc2)C[C@H](C)C(=O)OC)cs1)C(C)C (some centres not stated): 0.0
CC[C@H](NC(=O)[C@H]1CCCCN1C)C(=O)N(C)[C@H](C[C@@H](OC(C)=O)c1nc(C(=O)N[C@@H](Cc2ccccc2)C[C@H](C)C(=O)O)cs1)C(C)C: 1.0

Exam item: Please let me know the test result on file for COc1ccc(/C=C\c2cc(OC)c(OC)c(OC)c2)cc1NS(=O)(=O)c1ccc(Cl)cc1 .
Marked response: 0.0

Exam item: Then this compound: CC1CN1CCCCN1CC1C (configuration not stated)
Marked response: 0.0

Exam item: Then this compound: O=C(c1cccc(O)c1O)c1cn(Cc2ccc(F)cc2)c2cccc(O)c12
Marked response: 0.0

Exam item: Then this compound: CCOC(=O)[C@@H](C)C[C@H](Cc1ccccc1)NC(=O)c1csc([C@@H](C[C@H](C(C)C)N(C)C(=O)[C@H](CC)NC(=O)[C@H]2CCCCN2C)OC(C)=O)n1
Marked response: 1.0

Exam item: Then this compound: COc1cc2c(cc1OCCCCn1c(-c3cccs3)nc3ccccc31)N=C[C@@H]1CCCN1C2=O
Marked response: 1.0

Exam item: Then this compound: COc1cc(C=Nc2cccc(Br)c2)ccc1N(CCCl)CCCl
Marked response: 0.0

Exam item: Then this compound: Cc1cc(C)cc(Nc2nc3c(s2)CC[C@@]2(C)C3=CC[C@@H]3[C@@H]2CC[C@]2(C)C(=O)CC[C@@H]32)c1
Marked response: 0.0

Exam item: Then this compound: COc1cc(NC(C)CCCNC2CN3CCC2CC3)c2ncccc2c1 (configuration not stated)
Marked response: 0.0

Exam item: Then this compound: O=C(CC1(O)C(=O)N(Cc2ccccc2)c2ccc(Cl)cc21)c1ccc(C(=O)NCC2CCC3(CC2)OOC2(CCCCC2)OO3)cc1 (configuration not stated)
Marked response: 1.0

Exam item: Then this compound: C=C1C(=O)O[C@H]2[C@H]1CC/C(COC(=O)C(=O)c1cn(Cc3ccccc3)c3ccccc13)=C\CC[C@@]1(C)O[C@@H]21
Marked response: 1.0

Exam item: Then this compound: c1cc2c(c3c1CCNC3)OCO2
Marked response: 0.0

Exam item: Then this compound: C/C(=C\c1ccn(-c2ccc(N)c(F)c2)n1)[C@@H]1C[C@@H]2O[C@]2(C)CCC[C@H](C)[C@H](O)[C@@H](C)C(=O)C(C)(C)[C@@H](O)CC(=O)O1
Marked response: 0.0
